- ASSAY_PROCEDURE: MTT cytotoxicity assay, MDA-MB-231 cells
- Type: cell-based, human
- ASSAY_CONDITIONS: % Cytotoxicity, MDA-MB-231, 10 μM Mastoparan, MTT, 24 h, mean ± SEM
MEASURED_PARAMETER: cytotoxicity (%)
Entry rule: numbers only, all in %.

Q) Name the reported cytotoxicity value associated with the compound CC[C@H](C)[C@H](N)C(=O)N[C@@H](CC(N)=O)C(=O)N[C@@H](CC(C)C)C(=O)N[C@@H](CCCCN)C(=O)N[C@@H](C)C(=O)N[C@@H](CC(C)C)C(=O)N[C@@H](C)C(=O)N[C@@H](C)C(=O)N[C@@H](CC(C)C)C(=O)N[C@@H](C)C(=O)N[C@@H](CCCCN)C(=O)N[C@@H](CCCCN)C(=O)N[C@H](C(=O)N[C@@H](CC(C)C)C(N)=O)[C@@H](C)CC
A) 20
